Assayed system: Potassium channel subfamily K member 3 (Homo sapiens)
Experiment: human KCNK3 channel inhibitors, primary screen, CHO cells, FluxOR thallium flux, B-score (AID 602410);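 as to B-score: more negative B-score means stronger inhibition of thallium flux through KCNK3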
Condition: FluxOR fluorescence, at 10 µM
In all, about 340,000 compounds went through this assay and about 2,800 (0.82%) were called active.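 The calls were made as follows: active = B-score under library mean minus 4 SD, starting fluorescence ratio at most library mean plus 5 SD; inactive = the rest.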 Only a selection was taken, and actives are over-represented in it overall.
Permitted responses: active, inactive

Observe how each entry below is paired with its result.
Molecule: CCCN1Cc2cccc(C(=O)Nc3ccc(S(=O)(=O)N4CCCCCC4)cc3)c2C1=O
Assigned class: inactive
--
Molecule: CC(=O)c1c(Nc2ccccc2)sc(C(=O)c2ccccc2)c1C
Assigned class: inactive
--
Molecule: COCCCNCCOCCOc1ccc(Cl)cc1Br
Assigned class: inactive
--
Molecule: COc1ccc(C(F)(F)F)cc1N/C=C\c1nnnn1-c1ccc(C)cc1
Assigned class: inactive
--
Molecule: O=C1CCC[C@@H]2CC(N3CCCCC3)C[C@@H]3CCN1[C@H]23 (stereo partly specified)
Assigned class: inactive
--
Molecule: CCNC(=O)CC1C(=O)N(c2ccc(OC)cc2)C(=S)N1CCc1ccncc1 (stereo unspecified)
Assigned class: inactive

Query: Lab log entry: "CC(C)(C)OC(=O)Nc1ccc([C@@H](NC(=O)OC(C)(C)C)C(=O)OC(C)(C)C)cc1" — outcome as called in the assay?
Result: inactive

Query: Lab log entry: "Cc1cc2c(=O)n(CC(=O)NCC(=O)Nc3ccc(C(C)C)cc3)cnc2s1" — outcome as called in the assay?
Result: inactive

Query: Lab log entry: "CC1=C[C@H]2Cc3cc(C)cc(C)c3S(=O)(=O)[C@@H]2C=C1" — outcome as called in the assay?
Result: inactive

Query: Lab log entry: Cc1ccccc1-c1nc(CS(=O)(=O)CC(=O)NC(C)c2ccccc2)c(C)o1 (stereo unspecified) — outcome as called in the assay?
Result: inactive

Query: Lab log entry: "CCN1CCN(CCNC(=O)c2ccc(/C=C3/Sc4ccccc4N(Cc4cccc(C)c4)C3=O)cc2)CC1" — outcome as called in the assay?
Result: active

Query: Lab log entry: CC(C(=O)c1ccc(-c2ccccc2)cc1)[n+]1cccc(Br)c1 (stereo unspecified) — outcome as called in the assay?
Result: inactive

Query: Lab log entry: "COc1ccc(-c2nn(C)c(=O)c3ccccc23)cc1CNC(=O)C1CCCCC1" — outcome as called in the assay?
Result: inactive

Query: Lab log entry: Cc1ccc(C(CNC(=O)Nc2ccccc2)N2CCN(C)CC2)cc1 (stereo unspecified) — outcome as called in the assay?
Result: inactive

====

Assayed system: Potassium channel subfamily K member 3 (Homo sapiens) (UniProt O14649)
Sequence (O14649 whole entry, looked up): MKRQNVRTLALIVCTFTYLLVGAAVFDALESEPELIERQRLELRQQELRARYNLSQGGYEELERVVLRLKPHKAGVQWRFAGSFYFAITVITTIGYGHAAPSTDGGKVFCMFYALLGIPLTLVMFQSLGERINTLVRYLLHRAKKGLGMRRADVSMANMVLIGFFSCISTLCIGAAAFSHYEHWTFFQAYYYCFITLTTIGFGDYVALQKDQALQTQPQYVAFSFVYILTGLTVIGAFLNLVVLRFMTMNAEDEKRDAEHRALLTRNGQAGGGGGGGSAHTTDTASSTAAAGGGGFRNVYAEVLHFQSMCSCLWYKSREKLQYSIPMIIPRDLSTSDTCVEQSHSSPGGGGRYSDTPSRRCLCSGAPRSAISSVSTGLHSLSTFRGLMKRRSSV
Experiment: human KCNK3 channel inhibitors, primary screen, CHO cells, FluxOR thallium flux, B-score (AID 602410);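 as to B-score: more negative B-score means stronger inhibition of thallium flux through KCNK3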
Condition: FluxOR fluorescence, at 10 µM; active compounds read low
Out of some 340,000 compounds screened, about 2,800 (0.82%) were called active. This excerpt belongs to a sample that is enriched for actives.
Measured metric: B-score

Compound: CCOC(=O)N1CCN(Cc2nc(Cc3cccc(C(F)(F)F)c3)no2)CC1
Assayed system: Potassium channel subfamily K member 3 (Homo sapiens) (UniProt O14649)
Value reported: inactive
--
Compound: C#CC(C)(C)NC(=O)c1cnc(-c2ccccc2)nc1-c1ccccc1
Assayed system: Potassium channel subfamily K member 3 (Homo sapiens) (UniProt O14649)
Value reported: inactive
--
Compound: CCOC(=O)CSc1nc2c(sc(=S)n2CCc2ccccc2)c(=O)n1Cc1ccco1
Assayed system: Potassium channel subfamily K member 3 (Homo sapiens) (UniProt O14649)
Value reported: -9.18 (active)
--
Compound: Cc1cccc(N(C(=O)Cn2nnc(-c3ccc(C)o3)n2)C(C(=O)NC2CCCC2)c2ccncc2)c1 (centres undefined)
Assayed system: Potassium channel subfamily K member 3 (Homo sapiens) (UniProt O14649)
Value reported: inactive
--
Compound: COc1ccc(CC(NC(C)=O)C(=O)N2CCN(C(=O)Nc3cccc(Cl)c3)CC2)cc1OC (centres undefined)
Assayed system: Potassium channel subfamily K member 3 (Homo sapiens) (UniProt O14649)
Value reported: inactive
--
Compound: COc1cc(C(c2c(NC(=O)c3ccco3)sc(C)c2C)N2CCOCC2)cc(OC)c1OC (centres undefined)
Assayed system: Potassium channel subfamily K member 3 (Homo sapiens) (UniProt O14649)
Value reported: inactive

In plain terms, "CCOC(=O)CSc1nc2c(c(=O)n(Cc3ccccc3Cl)c(=O)n2C)n1C" has a documented B-score of inactive

In plain terms, "COC(=O)c1ccc(COC(=O)C2CCN(S(=O)(=O)c3c(Cl)cccc3Cl)CC2)o1" has a documented B-score of -10.8 (active)

In plain terms, "CCOC(=O)Cc1csc(NC(=O)CSc2nnc(-c3cccnc3)n2Cc2ccco2)n1" has a documented B-score of inactive
